# System: ULK2
# details: concentration: 1 μM, replicates: in singlicate; n = 1;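 further: KINOMEscan kinase panel screen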
measurement.type: %Inh
Answers without a unit are incomplete; give the number and then its unit.

Look over these answered cases.
compound: CN(c1ccc(NC(=O)N2CCN(CCCN3CCOCC3)CC2)cc1)c1ccnc(Nc2ccc(CS(C)(=O)=O)cc2)n1.Cl [GW830899]
%Inh: 0%

compound: O=C(Nc1n[nH]c2nc(-c3cccc(O)c3)ccc12)C1CC1 [SB-711805]
%Inh: 10%

compound: Cc1ccc(-c2ccc3occ(-c4ccc(S(C)=O)cc4)c3c2)nn1 (stereo not drawn)
%Inh: 0%

compound: CN(c1ccc2c(c1)nc(NCc1ccccc1)n2C)c1ccnc(Nc2ccc(CS(C)(=O)=O)cc2)n1.Cl [GW811603]
%Inh: 16%

compound: O=C1NC(=O)C(c2ccccc2Cl)=C1Nc1cccc(Cl)c1 [SB-342409]
%Inh: 0%

compound: Cc1ccc(O)cc1Nc1ccnc2cc(-c3ccc(CN4CCCCC4)o3)ccc12 [GW557777]
%Inh: 0%

compound: Nc1cccc(-c2ccc3c(N)n[nH]c3c2)c1 [GSK2193613]
%Inh: 0%

compound: O=C(Nc1n[nH]c2nc(-c3ccccc3O)ccc12)C1CC1 [SB-711880]
%Inh: 0%

Reported %Inh of Cc1ccc(O)cc1Nc1ccnc2ccc(C(C)(C)C)cc12 [GW856805] : 30%

---

Entries annotated with measured %Inh
# Test system: GRK7
# details: concentration: 1 μM, replicates: in singlicate; n = 1
Answers without a unit are incomplete; give the number and then its unit.

Look over these answered cases.
compound: Cc1ccc(NC(=O)c2ccnc(N3CCCCC3)c2)cc1-c1ccc(C(=O)NCC2CC2)cc1 [GW775610]
target.system: GRK7
measurement.type: %Inh
result: 0%

compound: CN(c1ccc2c(c1)nc(NCc1ccccc1)n2C)c1ccnc(Nc2ccc(CS(C)(=O)=O)cc2)n1.Cl [GW811603]
target.system: GRK7
measurement.type: %Inh
result: 16%

compound: O=C(Nc1n[nH]c2nc(-c3ccccc3)ccc12)C1CC1 [SB-708999]
target.system: GRK7
measurement.type: %Inh
result: 0%

compound: COC(=O)Nc1nc2cc(Oc3ccc(NC(=O)Nc4cccc(SC)c4)cc3)ccc2[nH]1.Cl [GW697999]
target.system: GRK7
measurement.type: %Inh
result: 0%

compound: CCNc1nccc(-c2c(-c3ccc(F)cc3)ncn2C2CCN(C)CC2)n1
target.system: GRK7
measurement.type: %Inh
result: 0%

Reported %Inh of O=C(O)C(F)(F)F.O=c1[nH]ccc2nc(N[C@@H]3CCNC3)nc(Nc3cc(Cl)cc(Cl)c3)c12 [GSK2188764] : 70%

Reported %Inh of O=C(Nc1c(F)cccc1F)c1cc(C(=O)c2ccccc2F)c[nH]1 [GSK1326180] : 0%

---

# Tested on: RET
# details: concentration: 1 μM, replicates: in singlicate; n = 1
measurement.type: %Inh (%)
Return type: number; implicit unit %.

Look over these answered cases.
compound: Fc1cc(Cl)ccc1Nc1ccnc2cc(-c3ccc(CN4CCSCC4)o3)ccc12
target.system: RET
measurement.type: %Inh
number: 98.3
//
compound: CCNc1nccc(-c2c(-c3ccc(F)cc3)ncn2C2CCN(C)CC2)n1
target.system: RET
measurement.type: %Inh
number: 0
//
compound: Cl.Cl.NC(CNC(=O)c1cc(Br)c(-c2ccnc3[nH]ccc23)s1)c1ccccc1 (centres unmarked)
target.system: RET
measurement.type: %Inh
number: 30
//
compound: N#CC1(c2cccc(C(=O)Nc3cccc(Oc4ccc5nc(NC(=O)C6CC6)sc5n4)c3)c2)CC1
target.system: RET
measurement.type: %Inh
number: 100
//
compound: COc1cc(Nc2nccc(N3CCC(NS(=O)(=O)c4ccc(NC(C)=O)cc4)CC3)n2)cc(OC)c1OC
target.system: RET
measurement.type: %Inh
number: 30
//
compound: c1ccc(Oc2ccc(Nc3ccnc4cc(-c5ccc(CN6CCCCC6)o5)ccc34)cc2)nc1
target.system: RET
measurement.type: %Inh
number: 11
//
compound: COc1cccc(C2=C(Nc3cccc(O)c3)C(=O)NC2=O)c1
target.system: RET
measurement.type: %Inh
number: 1

Next item in the queue.
Query Cc1ccc(C)c(NC(=O)Nc2ccc(C)c(-c3ccc(C(=O)Nc4ccncc4)cc3)c2)c1 on RET; %Inh returned: 23
